Data origin, for the record: paper PMC7968997

# Kd per record follows
- ASSAYED SYSTEM: T1, RBM45 RRM1-2 F29A/F70A (RRM2 analog) (Homo sapiens, UniProt Q8IUH3 23-202, F29A;F70A)
- T1 sequence: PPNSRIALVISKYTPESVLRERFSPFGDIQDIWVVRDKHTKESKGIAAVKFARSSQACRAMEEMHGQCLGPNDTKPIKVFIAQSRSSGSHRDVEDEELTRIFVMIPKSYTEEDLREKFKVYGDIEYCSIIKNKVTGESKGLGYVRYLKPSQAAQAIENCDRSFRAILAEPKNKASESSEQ
- ASSAY TEXT: fluorescence polarization
MEASURED PARAMETER: Kd (nM)

>  <BINDER>
GGACGG (ssDNA) [GGACGG ssDNA]

>  <VALUE>
2310

$$$$
>  <BINDER>
GGACGG (ssRNA) [GGACGG RNA]

>  <VALUE>
1480

$$$$
